Test system: XIP peptide (Xip251-270)
MEASUREMENT_DESCRIPTION: small-molecule binders of XIP peptide, primary screen, biochemical, small-molecule microarray, fluorescence 635/667 nm, 0.5 µg/mL protein (AID 1183)
ASSAY_CONDITIONS: small-molecule microarray binding, fluorescence 635 nm; higher = more signal

{"MOLECULE": "C=C(/C(=C/C[C@H](OC(=O)c1ccncc1)c1ccccc1OCCO)c1cnc2ccccc2c1)C(C)C", "composite z-score": 0.615}
{"MOLECULE": "COCCOC(=O)N1C(=O)[C@@]2(c3cc(C#CCCO)ccc31)[C@H](c1ccccc1OCCO)N1[C@H](c3ccccc3)[C@H](c3ccccc3)OC(=O)[C@H]1[C@@H]2C(=O)N1CCCCCCC1", "composite z-score": 0.759}
{"MOLECULE": "O=C(N1CCOCC1)[C@@]1(CCS(=O)(=O)c2ccccc2)N=C(c2ccc(OCCCO)cc2)O[C@H]1c1ccccc1", "composite z-score": 0.747}
{"MOLECULE": "O=C1O[C@H](c2ccccc2)[C@H](c2ccccc2)N2[C@H]1[C@@H](C(=O)Nc1nc3ccccc3s1)[C@]1(C(=O)Nc3ccc(C#CC4=CCCCC4)cc31)[C@H]2c1ccc(O)cc1", "composite z-score": 0.541}
{"MOLECULE": "COc1ccc(CCNC(=O)[C@@]2(Cc3ccccc3I)c3ccccc3C(=O)N(Cc3ccccc3Cl)[C@H]2c2ccc(CO)cc2)cc1", "composite z-score": 0.765}
{"MOLECULE": "Nc1cc(Br)ccc1C(=O)O", "composite z-score": -0.244}
{"MOLECULE": "CC(=O)NCCCC[C@@H]1NC(=O)[C@@H]2C[C@H](C(=O)NCCCCCCN)[C@H](c3cccc(OCCO)c3)N2C1=O", "composite z-score": 0.635}
{"MOLECULE": "COc1ccc(C#Cc2ccc3c(c2)[C@]2(C(=O)N3)[C@H](C(=O)Nc3nc4ccccc4s3)[C@H]3C(=O)O[C@H](c4ccccc4)[C@H](c4ccccc4)N3[C@@H]2c2ccccc2OCCO)cc1", "composite z-score": 0.598}
{"MOLECULE": "COc1cc2c(cc1O)C(c1ccc(CN3CCCC3)cc1)N(C)CC2 (configuration not stated)", "composite z-score": -0.819}
{"MOLECULE": "[N-]=[N+]=NCc1ccccc1[C@H]1OC(c2ccc(OCCCO)cc2)=N[C@@]1(CCS(=O)(=O)c1ccccc1)C(=O)NCc1ccccc1", "composite z-score": 0.68}
{"MOLECULE": "O=C1O[C@H](c2ccccc2)[C@H](c2ccccc2)N2[C@H]1[C@@H](C(=O)N1CCCCCCC1)[C@]1(C(=O)Nc3ccc(C#CC4(O)CCCCCC4)cc31)[C@H]2c1ccccc1OCCO", "composite z-score": 0.943}
{"MOLECULE": "COc1ccc(C(O)C2C=CC3C(=O)N(c4ccccc4)C(=O)C3N2Nc2ccc(C(C)C)cc2)c2ccccc12 (configuration not stated)", "composite z-score": 0.802}
{"MOLECULE": "COc1ccc([Si](C)(C)[C@H]2[C@H](CCO)O[C@@]3(C(=O)N(Cc4ccc(N5C(=O)c6ccccc6Oc6ccccc65)cc4)c4ccccc43)[C@@H]2C)cc1", "composite z-score": 0.0004}
{"MOLECULE": "C=C(/C(=C/C[C@@H](OC(=O)c1ccncc1)c1cccc(OCCO)c1)c1cnc2ccccc2c1)C(C)C", "composite z-score": 0.602}
{"MOLECULE": "COC(=O)[C@@]1(Cc2ccc(F)cc2)[C@H]2c3cc(C(=O)N4CCCC4)n(CC4CC4)c3C[C@H]2CN1C(=O)c1ccccc1", "composite z-score": 0.245}
{"MOLECULE": "CC(C)OC(=O)CC(=O)CC(O)c1ccc([N+](=O)[O-])cc1 (configuration not stated)", "composite z-score": 0.469}
{"MOLECULE": "COCC(=C=CC[C@@H](O)c1ccc(OCCO)cc1)CCO", "composite z-score": 0.429}
{"MOLECULE": "C=CC1c2cc(O)c(OC)cc2CCN1Cc1ccc([N+](=O)[O-])o1 (configuration not stated)", "composite z-score": 0.905}
{"MOLECULE": "COC(=O)C1=CC(CCCO)=CC(C)N(Cc2cccc(OC(F)(F)F)c2)C=C1C(=O)OC (configuration not stated)", "composite z-score": 0.526}
{"MOLECULE": "C=C(C)C1CCC(C(O)C2C=CC3C(=O)N(C)C(=O)C3N2Nc2cc(OC)c(OC)c(OC)c2)CC1 (configuration not stated)", "composite z-score": 0.596}
{"MOLECULE": "C=C[C@@H](C)[C@H](O)c1ccc(OCCO)cc1", "composite z-score": 0.0813}
{"MOLECULE": "C=CCC(OC(C)=O)[C@@H]1[C@@H](N(Cc2ccc(-c3ccccc3)cc2)C(=O)Cc2ccc(F)cc2)c2cc(OCCCO)ccc2N1C(=O)Cc1ccc2ccccc2c1 (some centres not stated)", "composite z-score": 0.233}
